Each entry below carries its recorded geometric mean (FACS titration).
Biological target: T1, human CD19 (on Raji cells, CD19+ homo sapiens Burkitt's lymphoma) (human, UniProt P15391 20-556)
T1 construct: whole, on cells; also called B-lymphocyte antigen CD19; B4
T1 sequence (looked up): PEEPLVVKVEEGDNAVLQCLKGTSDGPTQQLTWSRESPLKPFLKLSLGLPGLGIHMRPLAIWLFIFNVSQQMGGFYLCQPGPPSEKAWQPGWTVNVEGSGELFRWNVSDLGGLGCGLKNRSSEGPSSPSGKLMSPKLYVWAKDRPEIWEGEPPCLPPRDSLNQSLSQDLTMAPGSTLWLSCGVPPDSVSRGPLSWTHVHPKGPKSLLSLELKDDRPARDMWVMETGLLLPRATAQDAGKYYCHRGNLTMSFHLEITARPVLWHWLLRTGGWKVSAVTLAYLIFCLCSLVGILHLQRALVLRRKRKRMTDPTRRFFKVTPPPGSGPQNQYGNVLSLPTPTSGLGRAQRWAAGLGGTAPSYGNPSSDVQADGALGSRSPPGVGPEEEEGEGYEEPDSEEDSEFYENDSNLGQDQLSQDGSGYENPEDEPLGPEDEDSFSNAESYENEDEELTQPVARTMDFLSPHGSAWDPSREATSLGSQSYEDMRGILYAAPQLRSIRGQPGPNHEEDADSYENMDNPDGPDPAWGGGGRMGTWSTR
Assay: flow cytometry titration on Raji cells, anti-His FITC; scFv at log(nM) 0.614394
Provide a numeric answer; units are not to be included.

# count of solved cases: 2
| Binder | geometric mean (FACS titration) |
| --- | --- |
| AS-scFv (scFv, leader left out here) scFv: DIQMTQSPSTLSASVGDRVTITCRASQDISKYLNWYQQKPDQAPKLLIKHTSRLHSGVPSRFSGSGSGTDFTFTISSLQPEDIATYYCQQGNTLPYTFGQGTKLEIKGSTSGSGKPGSGEGSTKGQVQLQESGPGLVKPSGTLSLTCAVSGVSLPDYGVSWIRQPPGKGLEWIGVIWGSETTYYNSALKSRVTISRDNSKNTLYLQMNSLRAEDTAVYYCAKHYYYGGSYAMDYWGQGTLVTVSSHHHHHH | 14 |
| JS-scFv (scFv, leader left out here) scFv: DIQMTQSPSSLSASVGDRVTITCRASQDISKYLNWYQQKPDQAPKLLIKHTSRLHSGVPSRFSGSGSGTDYTLTISSLQPEDFATYYCQQGNTLPYTFGQGTKLEIKGSTSGSGKPGSGEGSTKGEVQLVESGGGLVQPGRSLRLSCTASGVSLPDYGVSWIRQPPGKGLEWIGVIWGSETTYYNSALKSRFTISRDNSKNTLYLQMNSLRAEDTAVYYCAKHYYYGGSYAMDYWGQGTLVTVSSHHHHHH | 13.3 |

Next:
Input line: Tell me the measured geometric mean (FACS titration) of SS-scFv (scFv, leader left out here) scFv: DIQMTQSPSFLSASVGDRVTITCRASQDISKYLNWYQQKPDQAPKLLIKHTSRLHSGVPSRFSGSGSGTDFTFTISSLQPEDIATYYCQQGNTLPYTFGQGTKLEIKGSTSGSGKPGSGEGSTKGEVQLVESGGGLVQPGRSLRLSCTASGVSLPDYGVSWVRQPPGKGLEWIGVIWGSETTYYNSALKSRFTISRDNSKNTLYLQMNSLRAEDTAVYYCAKHYYYGGSYAMDYWGQGTLVTVSSHHHHHH , please.
Output line: 13.9

From: patent US20180312588A1
